# System: SK-OV-3 ovarian
# procedure details: NCI tumour cell line growth inhibition, 48 h
reported endpoint: TGI

                                    molecule     result
 0        CCOC(=O)/C(=C\c1ccc(C#N)cc1)C(C)=O   > 100 µM
 1  C[N+]1(C)C/C(=C\c2ccccc2)C(=O)/C(=C/c2ccccc2)C1   > 100 µM
 2  C/C=C1/CCC2c3[nH]c4ccccc4c3CCN2C1 (stereo not given)   > 100 µM
 3  Nc1c(C(=O)Nc2ccc(C3=NCCN3)cc2)cccc1C(=O)Nc1ccc(C2=NCCN2)cc1   > 100 µM
 4              Nc1ccc(CCSSCCc2ccc(N)cc2)cc1   > 100 µM
 5  COC(=O)CN1SC2(SC13C(C)(C)C(=O)C3(C)C)C(C)(C)C(=O)C2(C)C   > 100 µM
 6  CN(C)CCCNc1c(C#N)[n+]([O-])c2cc(Cl)ccc2[n+]1[O-]  > 67.1 µM
 7  CC(C)(C)NCC(O)c1ccc(O)c(CO)n1 (stereo not given)   > 100 µM
 8       c1ccc2c(c1)cc1c3[nH]c4ccccc4c3ccn21    > 10 µM
 9  CN(C)CC1C(=O)O[C@H]2[C@H]1CC/C(COC(=O)c1cc3ccccc3[nH]1)=C\CC[C@@]1(C)O[C@@H]21 (stereo not given in full)    39.3 µM
10  COc1ccc(N2C(=O)C3c4[nH]c5ccccc5c4C4CC(C)CC(C)C4C3C2=O)cc1 (stereo not given)   > 100 µM
11  NC1CC(Cl)c2c(Cl)sc(Cl)c21 (stereo not given)   > 100 µM
12  Cc1ccc2c(c1)C(C)Cc1c(Cl)ncnc1N2C (stereo not given)      31 µM
13  CN(C)CCNC(=O)c1cccc2[nH]c(-c3cccnc3)nc12    80.3 µM
14  O=C(c1ccccc1)C(Br)C(Br)c1cccc([N+](=O)[O-])c1 (stereo not given)    22.9 µM

###

# reported TGI; entries follow
# System: COLO 205 colon
# procedure details: NCI tumour cell line growth inhibition, 48 h
reported endpoint: TGI

In [3]: df
Out[3]:
                                   compound  reported_endpoint    result
0  COc1ccccc1C1c2cc3c(cc2OC(O)(CO)C1C(=O)O)OCO3 (stereo unspecified) (tested in a mixture with another compound)                TGI  > 100 µM
1  COc1ccc(S(=O)(=O)N/N=C/c2cc(I)cc([N+](=O)[O-])c2O)cc1OC                TGI  > 100 µM
2  C/C(=N\NC(=S)N1CCN(C)CC1)c1nc2ncccc2[nH]1                TGI  > 100 µM
3  N#CCCN(c1ccc(C=Nc2ccccc2Cl)cc1)S(=O)(=O)c1ccccc1                TGI  > 100 µM
4  CC(C)C(Sc1nc(-c2ccccc2)c(-c2ccccc2)[nH]1)C(=O)NN (stereo unspecified)                TGI  > 100 µM
5  O=C1CCCC1C(O)(C(F)(F)F)C(F)(F)F (stereo unspecified)                TGI  > 100 µM

###

# Tested on: K-562 leukemia
# procedure details: NCI tumour cell line growth inhibition, 48 h
// reported TGI per item
reported endpoint: TGI

>>> print(df.to_string())
                                    compound     result
 0   CCN(C(C)=O)c1cnc(/C=N/NC(N)=S)c2ccccc12   > 100 µM
 1  COc1cccc2c1C(=O)c1c(O)c3c(c(O)c1C2=O)C[C@@](O)(C(=O)CO)C[C@@H]3O[C@H]1C[C@H](N)[C@@H](O)[C@H](C)O1    5.05 µM
 2  CCCCN(Cc1ccccc1)C(=NC#N)N(Cc1ccccc1)Cc1ccccc1   > 100 µM
 3     N#Cc1ccc(C(=O)/C=C/c2ccc(O)c(O)c2)cc1      34 µM
 4  CN1CCCOC(c2ccc([N+](=O)[O-])cc2)O1 (stereo not drawn)   > 100 µM
 5  O=C(c1ccccc1)[C@@H]1C[C@H](Sc2ccccc2)c2cc(Cl)ccc2N1    74.3 µM
 6                          O=Cc1ccccc1B(O)O   > 100 µM
 7         Oc1ccc(Cc2nccc3cc(O)c(O)cc23)cc1O   > 100 µM
 8  Cc1ccc(C)n1-c1ccccc1C1C=CN(C(=O)OC(C)(C)C)C=C1   > 100 µM
 9  COc1ccccc1N1CCN(CCc2c[nH]c3cc4c(cc23)OCO4)CC1   > 100 µM
10  N=[N+]=CC(=O)CCC(NC(=O)C(CCC(=O)C=[N+]=N)NC(=O)CCC(N)C(=O)O)C(=O)O (stereo not drawn)   > 100 µM
11  NC(=S)N/N=C1/CCCC2CCCC[C@@H]12 (stereo partly drawn)   > 100 µM
12      COc1c(Br)cc(/C=C(\C#N)c2cccnc2)cc1Br   > 100 µM
13  COc1cc(C(O)C(=O)c2nc3ccc([N+](=O)[O-])cc3[nH]c2=O)ccc1O (stereo not drawn)   > 100 µM
14  CCN1C(=O)N(c2ccccc2)C2NC(=S)N(/N=C/C=C/c3ccccc3)C21 (stereo not drawn)   > 100 µM
15  Cc1cc(NCc2cc(Nc3ccnc4cc(Cl)ccc34)ccc2F)nc(N2CCN(C)CC2)n1    2.11 µM
16  C=C(C)[C@@H]1CC[C@]2(C)[C@H](CC=C3[C@@H]4[C@@H](C)[C@H](C)CC[C@]4(C(N)=O)CC[C@]32C)[C@@]1(C)CCC#N   > 100 µM
17  CCC[CH2][Sn]([CH2]CCC)([CH2]CCC)[O]C(=O)c1ccc(Cl)cc1Cl    1.02 µM
18  COCn1cnc2c(=O)n(-c3ccc(OC)cc3)c(=S)n(-c3ccc(OC)cc3)c21   > 100 µM
19  CN(C)CCNC(=O)c1cccc2[nH]c(-c3cccnc3)nc12   > 100 µM
20  COc1ccc(N2C(=O)C3c4[nH]c5ccccc5c4C4CC(C)CC(C)C4C3C2=O)cc1 (stereo not drawn)   > 100 µM
21              Nc1ccc(CCSSCCc2ccc(N)cc2)cc1  > 62.3 µM
22  O=C(O)C1C(C(=O)O)C23CC2(C(=O)O)C2(C(=O)O)CCC3=C3CCCC312 (stereo not drawn)    95.5 µM
23  CCCCCCCCCCC(C(O)c1ccccc1)N1CCCCC1 (stereo not drawn)    5.93 µM
24  COc1ccc(S(=O)(=O)N/N=C/c2cc(I)cc([N+](=O)[O-])c2O)cc1OC   > 100 µM
25  NC(CCC(=O)NC(CSC(=O)N(O)c1ccccc1)C(=O)NCC(=O)O)C(=O)O (stereo not drawn)  > 1000 µM
26  COc1cc(NC(=O)CSc2nc3ccc(C)cc3c(=O)n2Cc2ccccc2)cc(OC)c1OC   > 100 µM
27            Cc1ccc2nc(-c3ccccc3)c(N=O)n2c1   > 100 µM
